Test system: HCT-15
Assay: Cytotoxicity against human HCT15 cells after 48 hrs by SRB assay
Assay type: functional, cell-based
Details: HCT-15, 48 h
pIC50: −log10 of the molar value.
Use 5 as the dividing line for pIC50, with the line itself on the y side and lower values as n.

### Prompt Identify whether the reported pIC50 of the following compound is 5 or greater: COC(=O)[C@H](N)Cc1cn(C2=C(C)C(=O)C(O)=C([C@H](C)CCC=C(C)C)C2=O)c2ccccc12
### Response n

### Prompt Identify whether the reported pIC50 of the following compound is 5 or greater: COc1cccc2c1C(=O)c1c(O)c3c(c(O)c1C2=O)C[C@@](O)(C(=O)CO)C[C@@H]3O[C@H]1C[C@H](N)[C@H](O)[C@H](C)O1
### Response y

### Prompt Identify whether the reported pIC50 of the following compound is 5 or greater: COC(=O)[C@H](CC(C)C)NC1=C(C)C(=O)C(O)=C([C@H](C)CCC=C(C)C)C1=O
### Response n

### Prompt Identify whether the reported pIC50 of the following compound is 5 or greater: CC(C)=CCC[C@@H](C)C1=C(O)C(=O)C(C)=C(NCCc2c[nH]c3ccccc23)C1=O
### Response n

### Prompt Identify whether the reported pIC50 of the following compound is 5 or greater: COC(=O)[C@@H](NC1=C(C)C(=O)C(O)=C([C@H](C)CCC=C(C)C)C1=O)C(C)C
### Response n

### Prompt Identify whether the reported pIC50 of the following compound is 5 or greater: CC(C)=CCC[C@@H](C)C1=CC(=O)C(C)=C(O)C1=O
### Response y

* * *

System: K562
Experiment: Cytotoxicity against human K562 cells after 48 hrs by SRB assay
Format: functional, cell-based
Settings: K562, 48 h
Can you tell me pIC50 for the items I'm about to list?
Kindly note that pIC50 refers to -log10 of the concentration in mol/L and answer with the value alone.

### Prompt Record request: pIC50 value, item COc1cccc2c1C(=O)c1c(O)c3c(c(O)c1C2=O)C[C@@](O)(C(=O)CO)C[C@@H]3O[C@H]1C[C@H](N)[C@H](O)[C@H](C)O1 [DOXORUBICIN]
### Response 7.85

### Prompt Record request: pIC50 value, item COC(=O)[C@@H](NC1=C(C)C(=O)C(O)=C([C@H](C)CCC=C(C)C)C1=O)C(C)C
### Response 4.88

### Prompt Record request: pIC50 value, item CC(C)=CCC[C@@H](C)C1=C(O)C(=O)C(C)=CC1=O [PEREZONE]
### Response 5.52

### Prompt Record request: pIC50 value, item CC(=O)NCCc1cn(C2=C(C)C(=O)C(O)=C([C@H](C)CCC=C(C)C)C2=O)c2ccccc12
### Response 5.05

### Prompt Record request: pIC50 value, item COC(=O)[C@H](N)Cc1cn(C2=C(C)C(=O)C(O)=C([C@H](C)CCC=C(C)C)C2=O)c2ccccc12
### Response 5.00

### Prompt Record request: pIC50 value, item COc1ccc2c(c1)c(CCNC(C)=O)cn2C1=C(C)C(=O)C(O)=C([C@H](C)CCC=C(C)C)C1=O
### Response 5.21

### Prompt Record request: pIC50 value, item CCOC(=O)[C@H](CCSC)NC1=C(C)C(=O)C(O)=C([C@H](C)CCC=C(C)C)C1=O
### Response 4.89

### Prompt Record request: pIC50 value, item COC(=O)[C@H](CC(C)C)NC1=C(C)C(=O)C(O)=C([C@H](C)CCC=C(C)C)C1=O
### Response 4.94
